Taken from ChEMBL document CHEMBL5614422.

ASSAY_TEXT: Drug concentration in male Sprague-Dawley rat plasma at 60 mg/kg, ip measured after 2 hrs by LC-MS analysis
Type: ADME, organism-based
METRIC: concentration at 2 h (ng/mL)
API: value field is a number in ng/mL; no unit string.

Q: Suppose we examine the molecule Cc1ccc(C(=O)NCCc2c[nH]c3ccc(N(C)C)cc23)c(O)c1 ; what concentration at 2 h value has been reported?
Ans: 633

----------
ASSAY_TEXT: Cytotoxicity against mouse BV-2 cells assessed as cell viability incubated for 24 hrs by CCK-8 method
Assay type: toxicity, cell-based
Attribute: IC50 at 24 h
API: value field is a number in µM; no unit string.

Worked examples follow.
[[record]]
compound_structure = "Cc1cccc(O)c1C(=O)NCCc1c[nH]c2ccccc12"
recorded_value = 43.6

[[record]]
compound_structure = "Cc1ccc(C(=O)NCCc2c[nH]c3ccc(Br)cc23)c(O)c1"
recorded_value = 88.6


Q: Suppose we examine the compound Cc1ccc(C(=O)NCCc2c[nH]c3ccc(C)cc23)c(O)c1 ; what IC50 at 24 h value has been reported?
Ans: 79.3

Q: Suppose we examine the compound Cc1ccc(C(=O)NCCc2c[nH]c3c(C)cccc23)c(O)c1 ; what IC50 at 24 h value has been reported?
Ans: 39.1

Q: Suppose we examine the compound COc1cccc(O)c1C(=O)NCCc1c[nH]c2ccccc12 ; what IC50 at 24 h value has been reported?
Ans: 21.7

Q: Suppose we examine the compound Cc1ccc(C(=O)NCCc2c[nH]c3c(F)cccc23)c(O)c1 ; what IC50 at 24 h value has been reported?
Ans: 43

Q: Suppose we examine the compound Cc1ccc(C(=O)NCCc2c[nH]c3cc4c(cc23)OCO4)c(O)c1 ; what IC50 at 24 h value has been reported?
Ans: 98.8

Q: Suppose we examine the compound Cc1ccc(C(=O)NCCc2c[nH]c3ccc(Cl)cc23)c(O)c1 ; what IC50 at 24 h value has been reported?
Ans: 80.5

Q: Suppose we examine the compound O=C(NCCc1c[nH]c2ccccc12)c1ccccc1O ; what IC50 at 24 h value has been reported?
Ans: 55.1

----------
ASSAY_TEXT: Cytotoxicity against mouse HT-22 cells assessed as cell viability incubated for 24 hrs by CCK-8 method
Assay type: toxicity, cell-based
METRIC: IC50 at 24 h

Worked examples follow.
[[record]]
compound_structure = "Cc1ccc(C(=O)NCCc2c[nH]c3cc(C)ccc23)c(O)c1"
recorded_value = "> 100 µM"

[[record]]
compound_structure = "CNc1cccc2c(CCNC(=O)c3ccc(C)cc3O)c[nH]c12"
recorded_value = "> 100 µM"

[[record]]
compound_structure = "Cc1ccc(C(=O)NCCc2c[nH]c3cccc(Cl)c23)c(O)c1"
recorded_value = "> 100 µM"

[[record]]
compound_structure = "COc1cccc(C(=O)NCCc2c[nH]c3ccccc23)c1O"
recorded_value = "> 100 µM"


API: the following record is the query input.
Q: Suppose we examine the compound Cc1ccc(C(=O)NCCc2c[nH]c3ccc(Cl)cc23)c(O)c1 ; what IC50 at 24 h value has been reported?
Ans: 61.2 µM

----------
ASSAY_TEXT: Cytotoxicity against mouse BV-2 cells assessed as cell viability incubated for 24 hrs by CCK-8 method
Type: toxicity, cell-based
Attribute: IC50 at 24 h
API: value field is a number in µM; no unit string.

Q: Suppose we examine the compound COc1cccc2[nH]cc(CCNC(=O)c3ccc(C)cc3O)c12 ; what IC50 at 24 h value has been reported?
Ans: 96

Q: Suppose we examine the compound COc1cc(C)cc2[nH]cc(CCNC(=O)c3ccc(C)cc3O)c12 ; what IC50 at 24 h value has been reported?
Ans: 52.9

Q: Suppose we examine the compound Cc1ccc(O)c(C(=O)NCCc2c[nH]c3ccccc23)c1 ; what IC50 at 24 h value has been reported?
Ans: 50.2

Q: Suppose we examine the compound O=C(NCCc1c[nH]c2ccccc12)c1cccc(Br)c1O ; what IC50 at 24 h value has been reported?
Ans: 85.4

Q: Suppose we examine the compound Cc1ccc(C(=O)NCCc2c[nH]c3c(Br)cccc23)c(O)c1 ; what IC50 at 24 h value has been reported?
Ans: 52.8

Q: Suppose we examine the compound COc1ccc(C(=O)NCCc2c[nH]c3ccccc23)c(O)c1 ; what IC50 at 24 h value has been reported?
Ans: 68

Q: Suppose we examine the compound COc1ccc(O)c(C(=O)NCCc2c[nH]c3ccccc23)c1 ; what IC50 at 24 h value has been reported?
Ans: 51

Q: Suppose we examine the compound Cc1ccc(C(=O)NCCc2c[nH]c3cc(Br)ccc23)c(O)c1 ; what IC50 at 24 h value has been reported?
Ans: 46.6

Q: Suppose we examine the compound Cc1ccc(C(=O)NCCc2c[nH]c3c(Cl)cccc23)c(O)c1 ; what IC50 at 24 h value has been reported?
Ans: 62.2

Q: Suppose we examine the compound O=C(NCCc1c[nH]c2ccccc12)c1ccc(Cl)cc1O ; what IC50 at 24 h value has been reported?
Ans: 53.4
